I'd appreciate it if you could supply IC50 values for the items below.
# subject-of-test: Kappa-type opioid receptor (Cavia porcellus) (UniProt P41144)
# Sequence (P41144 whole entry, looked up): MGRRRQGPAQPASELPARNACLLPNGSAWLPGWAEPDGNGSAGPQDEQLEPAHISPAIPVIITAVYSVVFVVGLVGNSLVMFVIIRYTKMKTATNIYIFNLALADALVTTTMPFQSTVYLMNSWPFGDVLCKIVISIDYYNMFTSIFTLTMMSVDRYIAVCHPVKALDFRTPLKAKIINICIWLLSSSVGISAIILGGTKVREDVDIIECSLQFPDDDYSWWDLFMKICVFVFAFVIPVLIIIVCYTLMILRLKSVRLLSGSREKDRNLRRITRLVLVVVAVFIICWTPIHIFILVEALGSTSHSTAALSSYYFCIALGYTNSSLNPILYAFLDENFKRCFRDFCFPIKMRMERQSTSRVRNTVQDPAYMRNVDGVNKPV
Give bare numbers, in nM.

Study these solved cases before continuing.
compound	unit-spec	IC50
C1CCC([C@H]2CN3C(=NC[C@H]3C3CCCCC3)N2CCC2CC3CCC2C3)CC1 (stereo not given in full)	nM	524
CC(C)C[C@@H]1CN2C(=NC[C@@H]2C)N1CCC1CC2CCC1C2 (stereo not given in full)	nM	2310
CC(N1C2=NC[C@H](C)N2C[C@@H]1C1CCCCC1)C12CC3CC(CC(C3)C1)C2 (stereo not given in full)	nM	1940
CC(C)C[C@@H]1CN2C(=NC[C@@H]2C)N1CCCC1CCCCC1	nM	5440

Next up:
Item: CC(C)C[C@@H]1CN2C(=NC[C@@H]2C2CCCCC2)N1C(C)C12CC3CC(CC(C3)C1)C2 (stereo not given in full) | System: Kappa-type opioid receptor (Cavia porcellus) (UniProt P41144) | IC50: 1210

###

# subject-of-test: Kappa-type opioid receptor (Cavia porcellus, UniProt P41144)
parameter: IC50 (µM)
Answers are plain numbers, in µM.

Kindly note the recorded IC50 for CC(C)C[C@@H]1CN2C(=NC[C@@H]2C2CCCCC2)N1CC1CCC(C)CC1 (stereo partly specified) , which is 3.68

###

# assay-summary: Enzyme inhibitory activity towards Matrix metalloproteases
parameter: IC50 (µM)
Give bare numbers, in µM.

Kindly note the recorded IC50 for O=C1CNC(=O)CN1 [DIKETOPIPERAZINE] , which is 30

###

# subject-of-test: GABA-A receptor; anion channel
# assay-summary: Inhibition of binding to GABA-A Benzodiazepine receptor
parameter: pKi
Answers are plain numbers, as −log10 of the molar value.

Kindly note the recorded pKi for O=c1cc(-c2ccccc2)oc2ccccc12 [FLAVONE] , which is 7.77

###

# subject-of-test: Mu-type opioid receptor (Homo sapiens, UniProt P35372)
# Sequence (P35372 whole entry): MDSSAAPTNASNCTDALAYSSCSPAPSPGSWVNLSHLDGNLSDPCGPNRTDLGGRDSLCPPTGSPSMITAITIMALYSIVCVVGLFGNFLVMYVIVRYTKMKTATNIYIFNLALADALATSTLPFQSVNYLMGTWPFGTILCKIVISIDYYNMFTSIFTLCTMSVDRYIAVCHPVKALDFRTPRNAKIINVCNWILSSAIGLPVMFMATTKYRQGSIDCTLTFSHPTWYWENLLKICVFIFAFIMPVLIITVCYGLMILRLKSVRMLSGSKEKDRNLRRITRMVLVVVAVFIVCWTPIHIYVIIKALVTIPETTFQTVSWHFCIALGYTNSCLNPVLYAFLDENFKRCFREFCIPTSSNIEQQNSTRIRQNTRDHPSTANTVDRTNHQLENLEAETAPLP
# assay-summary: Antagonistic activity towards Opioid receptor mu 1
parameter: IC50 (nM)
Numbers only, in nM.

Kindly note the recorded IC50 for CCCCCC(C)N (stereo unspecified) , which is 14
